target.desc: T1, Recombinant Human DLL4 (delta-like protein 4) (human, UniProt Q9NR61 27-524)
T1 construct: also called rHuman DLL4; Delta-like 4
experiment: ECL (MSD) binding assay, Fab on immobilized DLL4
observable: ECL signal
Give the figure by itself; no unit, no explanation.

// solved cases for ECL signal follow
If you can, please state the reported ECL signal value of Fab VH5-51_IGHD5-18*01>3_IGHJ4*01 G100K/G104T G35V & V3-4_IGLJ1*01 (Fab, V domains shown, Fab from E. coli: VH-CH1 from Plasmid A with His6 and Flag tags, VL with lambda CL from Plasmid E; also called KT G35V) VH: EVQLVQSGAEVKKPGESLKISCKGSGYSFTSYWIVWVRQMPGKGLEWMGIIYPGDSDTRYSPSFQGQVTISADKSISTAYLQWSSLKASDTAMYYCARRKYSYTYDYFDYWGQGTLVTVSS VL: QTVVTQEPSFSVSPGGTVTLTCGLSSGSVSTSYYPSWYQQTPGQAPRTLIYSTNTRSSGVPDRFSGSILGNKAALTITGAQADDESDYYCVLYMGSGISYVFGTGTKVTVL .
21200

Repeat for the following binder: Fab VH5-51_IGHD5-18*01>3_IGHJ4*01 G100K/G104T S28R & V3-4_IGLJ1*01 (Fab, V domains shown, Fab from E. coli: VH-CH1 from Plasmid A with His6 and Flag tags, VL with lambda CL from Plasmid E; also called KT S28R) VH: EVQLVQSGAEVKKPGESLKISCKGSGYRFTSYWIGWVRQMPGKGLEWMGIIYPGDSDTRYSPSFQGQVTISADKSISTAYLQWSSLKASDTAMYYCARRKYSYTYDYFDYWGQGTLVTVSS VL: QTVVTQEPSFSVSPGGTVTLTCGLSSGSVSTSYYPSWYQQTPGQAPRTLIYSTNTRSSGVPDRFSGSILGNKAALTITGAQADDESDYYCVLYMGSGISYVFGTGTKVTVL
51400

Repeat for the following binder: Fab VH5-51_IGHD5-18*01>3_IGHJ4*01 G100K/G104T G35T & V3-4_IGLJ1*01 (Fab, V domains shown, Fab from E. coli: VH-CH1 from Plasmid A with His6 and Flag tags, VL with lambda CL from Plasmid E; also called KT G35T) VH: EVQLVQSGAEVKKPGESLKISCKGSGYSFTSYWITWVRQMPGKGLEWMGIIYPGDSDTRYSPSFQGQVTISADKSISTAYLQWSSLKASDTAMYYCARRKYSYTYDYFDYWGQGTLVTVSS VL: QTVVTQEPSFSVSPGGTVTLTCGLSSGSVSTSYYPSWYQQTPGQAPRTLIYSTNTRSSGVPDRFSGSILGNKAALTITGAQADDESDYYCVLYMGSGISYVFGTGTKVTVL
14500

Continuing:
If you can, please state the reported ECL signal value of Fab VH5-51_IGHD5-18*01>3_IGHJ4*01 G100K/G104T S28N & V3-4_IGLJ1*01 (Fab, V domains shown, Fab from E. coli: VH-CH1 from Plasmid A with His6 and Flag tags, VL with lambda CL from Plasmid E; also called KT S28N) VH: EVQLVQSGAEVKKPGESLKISCKGSGYNFTSYWIGWVRQMPGKGLEWMGIIYPGDSDTRYSPSFQGQVTISADKSISTAYLQWSSLKASDTAMYYCARRKYSYTYDYFDYWGQGTLVTVSS VL: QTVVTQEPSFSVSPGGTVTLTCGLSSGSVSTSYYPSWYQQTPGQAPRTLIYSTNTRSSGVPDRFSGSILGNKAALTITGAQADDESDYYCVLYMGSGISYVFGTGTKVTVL .
17300

Repeat for the following binder: Fab VH5-51_IGHD5-18*01>3_IGHJ4*01 G100K/G104T G35A & V3-4_IGLJ1*01 (Fab, V domains shown, Fab from E. coli: VH-CH1 from Plasmid A with His6 and Flag tags, VL with lambda CL from Plasmid E; also called KT G35A) VH: EVQLVQSGAEVKKPGESLKISCKGSGYSFTSYWIAWVRQMPGKGLEWMGIIYPGDSDTRYSPSFQGQVTISADKSISTAYLQWSSLKASDTAMYYCARRKYSYTYDYFDYWGQGTLVTVSS VL: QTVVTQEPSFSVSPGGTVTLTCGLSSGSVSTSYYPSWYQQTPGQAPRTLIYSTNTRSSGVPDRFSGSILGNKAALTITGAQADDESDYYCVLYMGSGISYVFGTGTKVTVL
19700
